Source listed as patent US20250296971A1.

Molecular target: GIPR (CHO-K1-hGIPR cells) (Homo sapiens, UniProt P48546)
Construct: host or cells: CHO-K1
Sequence (P48546 22-466): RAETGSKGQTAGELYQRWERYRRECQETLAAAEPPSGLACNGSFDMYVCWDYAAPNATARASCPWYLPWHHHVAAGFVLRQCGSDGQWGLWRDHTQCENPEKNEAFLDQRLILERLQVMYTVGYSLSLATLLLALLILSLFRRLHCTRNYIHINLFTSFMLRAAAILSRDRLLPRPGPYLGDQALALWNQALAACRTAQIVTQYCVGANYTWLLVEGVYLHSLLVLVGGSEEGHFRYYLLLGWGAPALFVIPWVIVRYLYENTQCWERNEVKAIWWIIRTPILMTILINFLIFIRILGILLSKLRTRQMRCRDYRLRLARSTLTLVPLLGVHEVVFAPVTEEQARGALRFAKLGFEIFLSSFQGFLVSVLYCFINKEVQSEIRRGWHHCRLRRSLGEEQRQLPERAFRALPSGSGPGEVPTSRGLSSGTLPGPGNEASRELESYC
Experiment: FACS binding assay
Conditions: competition with 20 nM GIP-057, 4° C. for 1 hour, read-out: pIC50 Category (converted)
*1 amine or outer side, *2 acyl side, *3 side chain or, on linkers, in order; H or OH if unused. Where a SMILES comes first, the peptide text is derived from it. Bridges are numbered along the chain shown (N, C = ends). [ ]: non-standard residue; d: D form. The star is where a group is joined. X5 = NC(=O)[C@H](CCCCNC(=O)CN1CCN(CC(=O)O)CCN(CC(=O)O)CCN(CC(=O)O)CC1)NC(=O)CCC(=O)NCCCOCCOCCOCCCN*; 2Nal = N[C@@H](Cc1ccc2ccccc2c1)C(=O)O; mXylylene = c1cc(C[*:1])cc(C[*:2])c1; Suc = O=C(CCC(=O)[*:2])[*:1]; Aib = CC(C)(N)C(=O)O
Consider the following compounds; for each one, report its IC50.

Any idea what IC50 was measured for CC[C@H](C)[C@@H]1NC(=O)[C@H](CC(C)C)NC(=O)C(C)(C)NC(=O)[C@@H](NC(=O)[C@H](CC(C)C)NC(=O)[C@H](CCC(=O)O)NC(=O)[C@@H]2CCCN2C(=O)[C@H](Cc2c[nH]c3ccccc23)NC(=O)[C@H](Cc2ccc3ccccc3c2)NC(=O)[C@H](CC(=O)O)NC(C)=O)CSCc2cccc(c2)CSC[C@@H](C(=O)NCCCOCCOCCOCCCNC(=O)CCC(=O)N[C@@H](CCCCNC(=O)CN2CCN(CC(=O)O)CCN(CC(=O)O)CCN(CC(=O)O)CC2)C(N)=O)NC1=O [GIP-272] (Ac-D[2Nal]WPELC[Aib]LIC-X5; linker 7-11 via mXylylene) ? 100 to 794 nM

Any idea what IC50 was measured for CC[C@H](C)[C@@H]1NC(=O)[C@H](CC(C)C)NC(=O)[C@@H](C)NC(=O)[C@@H](NC(=O)[C@@H](CC(C)C)NC(=O)[C@H](CCC(=O)O)NC(=O)[C@@H]2CCCN2C(=O)[C@H](Cc2c[nH]c3ccccc23)NC(=O)[C@H](Cc2c[nH]c3ccccc23)NC(=O)CCC(=O)O)CSCc2cccc(c2)CSC[C@@H](C(N)=O)NC1=O [GIP-318] (Suc-WWPE[dL]C[dA]LIC-NH2; linker 6-10 via mXylylene) ? 100 to 794 nM

Any idea what IC50 was measured for CC[C@H](C)[C@@H]1NC(=O)[C@H](CC(C)C)NC(=O)[C@H](C)NC(=O)[C@@H](NC(=O)[C@@H](CC(C)C)NC(=O)[C@H](CCC(=O)O)NC(=O)[C@@H]2CCCN2C(=O)[C@H](Cc2c[nH]c3ccccc23)NC(=O)[C@H](Cc2c[nH]c3ccccc23)NC(=O)[C@H](CC(=O)O)NC(=O)[C@H](Cc2ccc(O)cc2)NC(=O)[C@@H](N)CCSC)CSCc2cccc(c2)CSC[C@@H](C(N)=O)NC1=O [GIP-247] (H-MYDWWPE[dL]CALIC-NH2; linker 9-13 via mXylylene) ? 10 to 79.4 nM
